src = patent US8906925B2

# assay-system: rat adrenergic α1A receptor (Rattus norvegicus, UniProt P43140)
# Construct: from tissue; host or cells: Wistar rat submaxillary glands
# Sequence (P43140 whole entry): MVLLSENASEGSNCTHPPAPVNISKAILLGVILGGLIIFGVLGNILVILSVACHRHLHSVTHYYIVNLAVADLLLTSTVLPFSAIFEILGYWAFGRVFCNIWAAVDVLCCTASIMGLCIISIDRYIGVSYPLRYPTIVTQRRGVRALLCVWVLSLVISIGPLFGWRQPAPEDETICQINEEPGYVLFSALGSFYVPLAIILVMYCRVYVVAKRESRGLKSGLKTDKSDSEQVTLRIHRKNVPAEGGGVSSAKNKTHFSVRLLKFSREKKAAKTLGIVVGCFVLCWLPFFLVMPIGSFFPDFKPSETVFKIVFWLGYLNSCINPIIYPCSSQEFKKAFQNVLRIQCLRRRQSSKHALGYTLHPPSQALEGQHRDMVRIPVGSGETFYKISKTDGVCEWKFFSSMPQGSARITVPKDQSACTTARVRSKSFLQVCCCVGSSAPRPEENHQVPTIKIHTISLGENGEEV
# protocol-description: Adrenergic α1A radioligand binding ([3H]Prozosin)
# measurement-parameters: percent inhibition of specific binding; compound at 1 μM; read-out: Inhibition of ligand binding, Adrenergic α1A
Property: inhibition at 1 µM; scope: individual molecules
Give the value in % but do not write % after it.

Here is how some molecules turned out for inhibition at 1 µM.
## Task What value of inhibition at 1 µM has been reported for the following molecule? C/C(=C\n1c2c(c3cc(Cl)ccc31)CN(C)CC2)c1ccc(F)cc1
## Result 90

## Task Using the record for CCN1CCc2c(c3ccccc3n2CC(O)c2ccc(C)cc2)C1 (racemic) , report its inhibition at 1 µM.
## Result 39

## Task Which inhibition at 1 µM reading was recorded for the molecule CCN1CCc2c(c3cc(C)ccc3n2CC(O)c2ccc(C)cc2)C1 (racemic) ?
## Result 86

## Task # lookup: inhibition at 1 µM of Cc1ccc(C(O)Cn2c3c(c4ccccc42)CN(C)CC3)cc1 (racemic)
## Result 74

Next:
## Task Please report the recorded inhibition at 1 µM for Cc1ccc(C(O)Cn2c3c(c4cc(C)ccc42)CN(C)CC3)cc1 (racemic) .
## Result 90

###

# assay-system: human recombinant histamine H2 receptor (Homo sapiens)
# Construct: expressed in transfected cells; host or cells: Chinese hamster ovary (CHO) K1 cells
# Sequence (P25021 whole entry): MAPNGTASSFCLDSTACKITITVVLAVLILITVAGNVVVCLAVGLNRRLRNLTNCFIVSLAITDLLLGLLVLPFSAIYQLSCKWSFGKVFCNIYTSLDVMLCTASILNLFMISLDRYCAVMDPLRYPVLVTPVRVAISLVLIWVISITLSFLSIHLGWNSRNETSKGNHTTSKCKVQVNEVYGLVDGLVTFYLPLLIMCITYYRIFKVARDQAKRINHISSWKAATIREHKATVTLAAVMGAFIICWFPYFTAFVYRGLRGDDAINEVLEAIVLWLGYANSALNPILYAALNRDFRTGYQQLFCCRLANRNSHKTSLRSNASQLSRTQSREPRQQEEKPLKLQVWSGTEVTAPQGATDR
# protocol-description: Histamine H2 radioligand binding ([125I]Aminopotentidine)
# measurement-parameters: read-out: Histamine Binding (1 μM) H2, percent inhibition of specific binding, 1 μM
inhibition at 1 µM overview
Return type: number; implicit unit %.

Observe how each entry below is paired with its result.
## Task What value of measured inhibition at 1 µM is listed for COc1ccc(C(C)(O)Cn2c3c(c4cc(Cl)ccc42)CN(C)CC3)cc1F (stereo not drawn) ?
## Result 58

## Task // lookup inhibition at 1 µM for COc1ccc(/C(C)=C/n2c3c(c4cc(Cl)ccc42)CN(C)CC3)cc1
## Result 99

## Task For Cc1ccc2c(c1)c1c(n2CC(C)(O)c2ccncc2)CCN(C)C1 (stereo not drawn) , what is its reported inhibition at 1 µM?
## Result 43

---
## Task Fill in the blank: the reported inhibition at 1 µM of CN1CCc2c(c3cc(Cl)ccc3n2CC(C)(O)c2ccc(F)cc2)C1 (stereo not drawn) is ____.
## Result 94

## Task Reported inhibition at 1 µM for CN1CCc2c(c3cc(Cl)ccc3n2C2=C(c3cccnc3)CCCC2)C1 : what is it?
## Result 56

## Task Item under review: CN1CCc2c(c3cc(Cl)ccc3n2C#Cc2ccc(Cl)cc2)C1 . Reported inhibition at 1 µM?
## Result 93

## Task Look at this compound and give its reported inhibition at 1 µM. CN1CCc2c(c3c(Cl)c(Cl)ccc3n2CC(C)(O)c2ccncc2)C1 (stereo not drawn)
## Result 9

## Task Find the recorded inhibition at 1 µM belonging to COc1ccc2c(c1)c1c(n2/C=C(\C)c2ccncc2)CCN(C)C1 and report it.
## Result 29

## Task Data request, read-out inhibition at 1 µM, for Cc1ccc2c(c1)c1c(n2CC(C)(O)c2ccc(C)nc2)CCN(C)C1 (stereo not drawn)
## Result 51

###

Reported inhibition at 1 µM values follow for various compounds
# assay-system: human recombinant histamine H2 receptor (Homo sapiens)
# Construct: expressed in transfected cells; host or cells: Chinese hamster ovary (CHO) K1 cells
# protocol-description: Histamine H2 radioligand binding ([125I]Aminopotentidine)
# measurement-parameters: read-out: Histamine Binding (1 μM) H2, percent inhibition of specific binding, 1 μM
Express your answer in %, writing the number without its unit.

Consider the reported inhibition at 1 µM for these compounds:
## Task Bench note: what inhibition at 1 µM did C/C(=C/n1c2c(c3cc(Cl)c(Cl)cc31)CN(C)CC2)c1ccncc1 [Compound 244] show?
## Result 88

## Task Record request: inhibition at 1 µM value, item C/C(=C\n1c2c(c3cc(Cl)ccc31)CN(C)CC2)c1ccccc1F [Compound 213]
## Result 99

## Task Quick one: inhibition at 1 µM for C=C(Cn1c2c(c3cccc(Cl)c31)CN(C)CC2)c1ccc(F)cc1 [Compound No. 354] ?
## Result 97

## Task Recorded inhibition at 1 µM for C/C(=C\n1c2c(c3cc(C)ccc31)CN(C)CC2)c1ccc(F)c(F)c1 [Compound 230] , please?
## Result 96

## Task I am curious: what inhibition at 1 µM value has been reported for CN1CCc2c(c3cc(Cl)ccc3n2/C=C(/c2ccc(F)cc2)C2CCC2)C1 [Compound 206] ?
## Result 102

## Task Can you share its inhibition at 1 µM? I mean this compound: Cc1ccc2c(c1)c1c(n2CC(O)c2cccnc2)CCN(C)C1 (centres unmarked) [Compound 54]
## Result 5

***
## Task Give the measured inhibition at 1 µM of C/C(=C\n1c2c(c3cc(Cl)ccc31)CN(C)CC2)c1ccc(F)cc1 [Compound 83] .
## Result 99
